Assign Bliss excess to each entry below.
# Tested on: KURAMOCHI (Ovarian Carcinoma)
# experiment-summary: Bliss excess, mean over the matrix (fraction); higher = more synergy;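 note: after 72 h of two-drug dosing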
One number for each entry.

The cases that follow already have their Bliss excess on record.
>  <compound>
C=CCn1c(=O)c2cnc(Nc3ccc(N4CCN(C)CC4)cc3)nc2n1-c1cccc(C(C)(C)O)n1 [AZD1775] + C1CN(CCC1(C(=O)N[C@@H](CCO)C2=CC=C(C=C2)Cl)N)C3=NC=NC4=C3C=CN4 [Capivasertib] (first compound max 3 µM, partner max 3 µM)

>  <experimental-system>
KURAMOCHI (Ovarian Carcinoma)

>  <Bliss excess>
-0.072

$$$$
>  <compound>
Cc1cc2ncnn2cc1Nc1ncc2c(n1)n(C1CCOCC1)c(=O)n2C [AZD7648] + CCN(CCO)CCCOc1ccc2c(Nc3cc(CC(=O)Nc4cccc(F)c4)[nH]n3)ncnc2c1 [AZD2811] (first compound max 10 µM, 7x7, partner max 1 µM)

>  <experimental-system>
KURAMOCHI (Ovarian Carcinoma)

>  <Bliss excess>
0.0084

$$$$
>  <compound>
CC1(C)CCC(CN2CCN(c3ccc(C(=O)NS(=O)(=O)c4ccc(NCC5CCOCC5)c([N+](=O)[O-])c4)c(Oc4cnc5[nH]ccc5c4)c3)CC2)=C(c2ccc(Cl)cc2)C1 [Venetoclax] + CN(C)CCCOc1ccc(-c2ccc3ncc4c(c3c2)n(C2CCOCC2)c(=O)n4C)cn1 [AZD0156] (first compound max 1 µM, 7x7, partner max 1 µM)

>  <experimental-system>
KURAMOCHI (Ovarian Carcinoma)

>  <Bliss excess>
-0.0039

$$$$

What the record says about C[C@@H](c1ccc2nccn2c1)n1nnc2ncc(-c3cnn(C)c3)nc21 [Savolitinib] + CC1(C)CCC(CN2CCN(c3ccc(C(=O)NS(=O)(=O)c4ccc(NCC5CCOCC5)c([N+](=O)[O-])c4)c(Oc4cnc5[nH]ccc5c4)c3)CC2)=C(c2ccc(Cl)cc2)C1 [Venetoclax] (first compound max 1 µM, 7x7, partner max 1 µM) : Bliss excess is -0.0274

###

# Test system: TE-9 (Esophageal Squamous Cell Carcinoma)
# experiment-summary: Bliss excess, mean over the matrix (fraction); higher = more synergy
Classes (Bliss excess): LOW: < -0.04; MID: ≥ -0.04 and < 0.006; HIGH: ≥ 0.006

>  <compound>
CN(CCO)CC[C@H](CSc1ccccc1)Nc1ccc(S(=O)(=O)NC(=O)c2ccc(N3CCC([C@@H](O)c4ccccc4-c4ccc(Cl)cc4)CC3)cc2)cc1S(=O)(=O)C(F)(F)F [AZD4320] + C[C@@H](Nc1cc(F)cc(F)c1)c1cc(C(=O)N(C)C)cc2c(=O)cc(N3CCOCC3)oc12 [AZD8186] (first compound max 1 µM, 7x7, partner max 3 µM)

>  <category-label>
HIGH

$$$$
>  <compound>
N#Cc1cnc(Nc2cc(NC[C@H]3CNCCO3)c(C(F)(F)F)cn2)cn1 [SRA737] + O=c1[nH]cc(F)c(=O)[nH]1 [5-Fluorouracil] (first compound max 10 µM, 7x7, partner max 20 µM)

>  <category-label>
HIGH

$$$$
>  <compound>
Cn1cnc2c(F)c(Nc3ccc(Br)cc3Cl)c(C(=O)NOCCO)cc21 [Selumetinib] + C=CCn1c(=O)c2cnc(Nc3ccc(N4CCN(C)CC4)cc3)nc2n1-c1cccc(C(C)(C)O)n1 [AZD1775] (first compound max 10 µM, partner max 1 µM)

>  <category-label>
MID

$$$$
>  <compound>
COc1cc2ncnc(Nc3ccc(F)c(Cl)c3)c2cc1OCCCN1CCOCC1 [Gefitinib] + CC(C)n1c(=O)n(C)c2cnc3cc(F)c(-c4ccc(OCCCN5CCCCC5)nc4)cc3c21 [AZD1390] (first compound max 10 µM, 7x7, partner max 0.3 µM)

>  <category-label>
LOW

$$$$

Now consider the entry below.
For the record C=CCn1c(=O)c2cnc(Nc3ccc(N4CCN(C)CC4)cc3)nc2n1-c1cccc(C(C)(C)O)n1 [AZD1775] + CCc1c2c(nc3ccc(O)cc13)-c1cc3c(c(=O)n1C2)COC(=O)[C@]3(O)CC [SN-38] (first compound max 1 µM, partner max 0.3 µM) , report the class its Bliss excess corresponds to. MID
